Taken from the Human Domainome abundance scans (Beltran et al. 2025).

abundance fitness values, listed per item
B1: Zinc finger homeobox protein 4, residues 2086 to 2141; numbered along this chain, Q86UP3 (parent)
chain: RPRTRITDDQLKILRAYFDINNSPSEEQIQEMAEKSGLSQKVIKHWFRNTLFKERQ

Variants of: B1
EXPERIMENT SUMMARY: abundance fitness (aPCA) (normalised: wild type 0, dead -1); higher = more abundant; growth selection in yeast, the domain comes from the species named
CONDITION DESCRIPTION: Homo sapiens
Write the value as a bare number.

V42Q = -0.037

Inquiry: Look up abundance fitness for this variant: H45G
Reply text: -0.029

Inquiry: Look up abundance fitness for this variant: I20P
Reply text: 0.022

Inquiry: Look up abundance fitness for this variant: F18T
Reply text: 0.014

Inquiry: Look up abundance fitness for this variant: T50C
Reply text: -0.213

Inquiry: Look up abundance fitness for this variant: L51M
Reply text: 0.005

Inquiry: Look up abundance fitness for this variant: I29Q
Reply text: -0.147

Inquiry: Look up abundance fitness for this variant: N22I
Reply text: 0.204

Inquiry: Look up abundance fitness for this variant: D19S
Reply text: 0.142

Inquiry: Look up abundance fitness for this variant: P24M
Reply text: -0.676

Inquiry: Look up abundance fitness for this variant: L51N
Reply text: -0.12
